Provide the reported Total recovery of each item.
Assay: Urinary elimination/recovery after 500 mg oral bolus of 13C5-C3G
Assay type: in vivo, humans
Conditions: urine, 0-48 h; single 500 mg oral 13C5-C3G; mean ± SEM
Answers are plain numbers, in µg.

molecule="COC(=O)c1ccc(O)c(O)c1 [Methyl-3,4-dihydroxybenzoate]" quantitative_readout=20.7

# return Total recovery for each item in the list
1. COc1ccc(C(=O)O)c(O)c1 [2-Hydroxy-4-methoxybenzoic acid]
2. COc1cc(-c2[o+]c3cc(O)cc(O)c3cc2OC2OC(CO)C(O)C(O)C2O)ccc1O (stereo not shown) [Peonidin-3-glucoside]
3. O=C(O)c1ccc(OS(=O)(=O)O)c(O)c1 [PCA-4-sulfate]
4. O=Cc1ccc(O)cc1 [4-Hydroxybenzaldehyde]

Outgoing:
1: 64.6; 2: 22.9; 3: 492.4; 4: 10.0

// input: 8 molecules below; output: Total recovery for each
1. COc1ccc(C(=O)O)cc1O [IsoVA]
2. O=C(O)CNC(=O)c1ccccc1 [Hippuric acid]
3. COc1ccc(C(=O)O)cc1OS(=O)(=O)O [IsoVA-3-sulfate]
4. O=Cc1c(O)cc(O)cc1O [Phloroglucinaldehyde]
5. COc1cc(C(=O)O)ccc1O [Vanillic acid (VA), Vanillic acid]
6. O=C(O)Cc1ccc(O)cc1 [4-Hydroxyphenylacetic acid]
7. O=C(O)c1ccc(O)cc1
8. COc1cc(C(=O)O)ccc1OS(=O)(=O)O [VA-4-sulfate]

Outgoing:
1: 79.5; 2: 2415.6; 3: 183.2; 4: 66.7; 5: 960.4; 6: 50.0; 7: 13.2; 8: 449.1
